Where these numbers come from: paper PMC5960627

Molecular target: Calmodulin (UniProt P0DP23 1-149)
Experiment: other fluorescence titration
Returns: string. Value is satisfied if measured Kd is below 5 µM, and not satisfied if it is greater than or equal to it.

{"columns": ["binder", "assigned_category"],
 "data": [
  ["DQALAIVHPMKSQLRQT (domain or fragment) [BSAT1R_(125-141mut), FRET biosensor with mutant AT1R a.a. 125-141 (SMD2) between EYFPc and ECFP]", "not satisfied"],
  ["YTLIWKALKKAYEIQKNK (domain or fragment) [BSAT1R_(215-232), FRET biosensor with AT1R a.a. 215-232 (part of SMD3) between EYFPc and ECFP]", "satisfied"],
  ["AKRYALQLLKAIPPKAQSH (domain or fragment) [BSAT1R_(309-327mut), FRET biosensor with mutant AT1R a.a. 309-327 (SMD4JM) between EYFPc and ECFP]", "not satisfied"],
  ["YTLIAKALKKAAEIQKNQPRNDDIAKII (domain or fragment) [BSAT1R_(215-242mut), FRET biosensor with mutant AT1R a.a. 215-242 (SMD3) between EYFPc and ECFP]", "satisfied"],
  ["FKRYFLQLLKYIPPKAKSH (domain or fragment) [BSAT1R_(309-327), FRET biosensor with AT1R a.a. 309-327 (SMD4JM) between EYFPc and ECFP]", "satisfied"],
  ["YTLIWKALKKAYEIQKNKPRNDDIFKII (domain or fragment) [BSAT1R_(215-242), FRET biosensor with AT1R a.a. 215-242 (entire SMD3) between EYFPc and ECFP]", "satisfied"],
  ["DRYLAIVHPMKSRLRRT (domain or fragment) [BSAT1R_(125-141), FRET biosensor with AT1R a.a. 125-141 (SMD2) between EYFPc and ECFP]", "not satisfied"]
]}
